target: HLA-A01.01 (human); assay: competition with radiolabeled reference peptide, purified MHC I; settings: remark: other sources report otherwise
Answer each item with its documented IC50.
Hi! Could you send only the number? It should be in µM, unit omitted.

State the recorded IC50 for this entry: WMTETLFDIV 14.4

State the recorded IC50 for this entry: MLTDSLFLPI 7.67

These data points were gathered from patent US20220282217A1.
